Biological target: CXCR7 (Homo sapiens)
Construct: host or cells: CHO-K1 (PathHunter CHO-K1 CXCR7 b-arrestin cell line, stably transfected)
Sequence (P25106 whole entry): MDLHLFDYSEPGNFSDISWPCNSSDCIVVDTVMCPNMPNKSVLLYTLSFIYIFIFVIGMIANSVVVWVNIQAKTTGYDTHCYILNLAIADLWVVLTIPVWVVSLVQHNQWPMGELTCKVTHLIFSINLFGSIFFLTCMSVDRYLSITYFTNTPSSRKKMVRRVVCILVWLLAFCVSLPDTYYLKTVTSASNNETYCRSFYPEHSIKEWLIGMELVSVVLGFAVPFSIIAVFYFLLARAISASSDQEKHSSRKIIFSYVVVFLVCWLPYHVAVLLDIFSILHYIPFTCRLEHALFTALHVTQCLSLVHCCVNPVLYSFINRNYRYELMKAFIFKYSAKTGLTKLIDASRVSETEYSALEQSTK
Sequence (P32121 whole entry partner): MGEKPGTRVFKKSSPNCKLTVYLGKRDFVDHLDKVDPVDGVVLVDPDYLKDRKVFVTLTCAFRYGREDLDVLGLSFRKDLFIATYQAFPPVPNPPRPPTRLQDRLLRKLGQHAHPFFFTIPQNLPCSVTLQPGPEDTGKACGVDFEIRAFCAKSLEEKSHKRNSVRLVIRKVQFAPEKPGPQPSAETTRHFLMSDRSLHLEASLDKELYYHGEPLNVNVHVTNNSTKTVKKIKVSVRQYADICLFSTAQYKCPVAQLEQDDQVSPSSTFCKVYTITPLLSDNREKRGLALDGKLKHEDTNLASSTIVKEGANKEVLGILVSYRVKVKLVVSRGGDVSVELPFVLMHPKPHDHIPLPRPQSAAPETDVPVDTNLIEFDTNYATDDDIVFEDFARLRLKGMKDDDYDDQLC
Assay: PathHunter CHO-K1 CXCR7 b-arrestin recruitment assay (CXCR7 agonistic activity)
Type: cell-based
Settings: PathHunter CHO-K1 CXCR7 b-arrestin cell line
pEC50: −log10 of the molar value.
Label FALSE if pEC50 falls below 8; label TRUE in every other case.

QUERY SMILES	TARGET OR SYSTEM	CAT
CNCCN(Cc1ccccc1C(F)(F)F)C(=O)CNc1cccc2c1CCN(C(=O)CC(C)C)C2	CXCR7 (Homo sapiens)	FALSE
CC(C)C(=O)N1CCc2cccc(NCC(=O)N(CCN(C)C)Cc3ccccc3)c2C1	CXCR7 (Homo sapiens)	FALSE
CN(CCN(Cc1ccccc1Br)C(=O)CNc1cccc2c1CCN(CC1CC1)C2)C(=O)OC(C)(C)C	CXCR7 (Homo sapiens)	FALSE
CCN1CCc2cccc(NCC(=O)N(CCN(C)C)Cc3ccccc3C)c2C1	CXCR7 (Homo sapiens)	FALSE
CN(C)CCN(Cc1ccccc1)C(=O)COc1cccc2c1CCN(C)C2	CXCR7 (Homo sapiens)	FALSE
CN(C)CCN(Cc1ccccc1C(F)(F)F)C(=O)CNc1cccc2c1CCN(C(=O)c1ccco1)C2	CXCR7 (Homo sapiens)	TRUE
CC(C)(C)CCN(Cc1ncccc1C(F)(F)F)C(=O)CNc1cccc2c1CCN(CC1CC1)C2	CXCR7 (Homo sapiens)	FALSE
CN(C)CCN(Cc1cccc(C(F)(F)F)n1)C(=O)CNc1cccc2c1CCN(CC1CC1)C2	CXCR7 (Homo sapiens)	TRUE
CN(C)CCN(Cc1ccccc1C(F)(F)F)C(=O)CNc1cccc2c1CN(CC(C)(C)C)CC2	CXCR7 (Homo sapiens)	FALSE
CN1CCc2c(cccc2NCC(=O)N(Cc2ccccc2)CC2CC2)C1	CXCR7 (Homo sapiens)	FALSE
CCN(CCN(Cc1ccccc1C(F)(F)F)C(=O)CNc1cccc2c1CCN(CC1CC1)C2)C(=O)OC(C)(C)C	CXCR7 (Homo sapiens)	FALSE
CCN1CCc2cccc(NCC(=O)N(CCN(C)C)Cc3ccc(F)cc3C(F)(F)F)c2C1	CXCR7 (Homo sapiens)	FALSE
CCC(=O)N1CCc2c(cccc2NCC(=O)N(CCN(C)C)Cc2cccc(Cl)c2)C1	CXCR7 (Homo sapiens)	FALSE
O=C(CNc1cccc2c1CCN(CC1CC1)C2)N(CCN1CCC(F)(F)C1)Cc1ncccc1C(F)(F)F	CXCR7 (Homo sapiens)	FALSE
O=C(CNc1cccc2c1CCN(CC1CC1)C2)N(CCN1CCCCC1)Cc1ccccc1C(F)(F)F	CXCR7 (Homo sapiens)	TRUE
CC(C)(C)CCN(Cc1ccccc1C(F)(F)F)C(=O)CNc1cccc2c1CCN(CC1CC1)C2	CXCR7 (Homo sapiens)	FALSE
CN1CCC(N(Cc2ccccc2C(F)(F)F)C(=O)/C=C/c2cccc3c2CCN(C(=O)OC(C)(C)C)C3)CC1	CXCR7 (Homo sapiens)	FALSE
CN(C)CCN(Cc1ncccc1C(F)(F)F)C(=O)CNc1cccc2c1CCN(C1CCC1)C2	CXCR7 (Homo sapiens)	TRUE
CCN1CCc2cccc(NCC(=O)N(CCN(C)C)Cc3cccc(OC)c3)c2C1	CXCR7 (Homo sapiens)	FALSE
CN(C)CCN(Cc1ccccc1)C(=O)/C=C/c1cccc2c1CCN(CC1CC1)C2	CXCR7 (Homo sapiens)	TRUE
CNCCN(Cc1ncccc1C(F)(F)F)C(=O)CNc1cccc2c1CCN(C(=O)C1CCC1)C2	CXCR7 (Homo sapiens)	FALSE
O=C(CNc1cccc2c1CN(CC1CC1)CC2)N(CCN1CCC(F)(F)CC1)Cc1ccccc1C(F)(F)F	CXCR7 (Homo sapiens)	FALSE
